Molecular target: purified human HDAC6 (Homo sapiens, UniProt Q9UBN7)
Construct: purchased BPS Bioscience 5006
Assay: HDAC6 Enzyme Assay
Type: biochemical
Settings: compound concentration 0.412 μM, read-out: Percent Inhibition
readout-name: inhibition at 0.412 µM (%)
Give bare numbers, in %.

Illustrative cases are given below, each with its answer.
INSERT INTO results (structure_smiles, target_or_system, test_result) VALUES
  ('O=C(NO)c1ccc2c(=O)[nH]c(COc3ccccc3-n3cccc3)nc2c1', 'purified human HDAC6 (Homo sapiens, UniProt Q9UBN7)', 91.1),
  ('O=C(NO)c1ccc2ccn(Cc3nc4ccccc4s3)c(=O)c2c1', 'purified human HDAC6 (Homo sapiens, UniProt Q9UBN7)', 97.5),
  ('O=C(NO)c1ccc2ccn(Cc3ccc(-n4cncn4)cc3)c(=O)c2c1', 'purified human HDAC6 (Homo sapiens, UniProt Q9UBN7)', 94.9),
  ('COc1ccc2cc(OCCCn3ccc4ccc(C(=O)NO)cc4c3=O)ccc2c1', 'purified human HDAC6 (Homo sapiens, UniProt Q9UBN7)', 96.2),
  ('O=C(NO)c1ccc2[nH]c(=O)n(Cc3ccccc3)c(=O)c2c1', 'purified human HDAC6 (Homo sapiens, UniProt Q9UBN7)', 93),
  ('O=C(NO)c1ccc2ccn(CC3CCNCC3)c(=O)c2c1', 'purified human HDAC6 (Homo sapiens, UniProt Q9UBN7)', 82.2),
  ('O=C(NO)c1ccc2ccn(CCCN3CCCCC3)c(=O)c2c1', 'purified human HDAC6 (Homo sapiens, UniProt Q9UBN7)', 67.1),
  ('O=C(NO)c1ccc2ccn(Cc3ccc(Cl)c(Cl)c3)c(=O)c2c1', 'purified human HDAC6 (Homo sapiens, UniProt Q9UBN7)', 95.9);

Note to self: inhibition at 0.412 µM of O=C(NO)c1ccc2ccn(CCOc3ccccc3-n3cccc3)c(=O)c2c1 with purified human HDAC6 (Homo sapiens, UniProt Q9UBN7) was 98.5

----------
Target: purified human HDAC6 (Homo sapiens)
Construct: purchased BPS Bioscience 5006
Sequence (Q9UBN7 1-1215): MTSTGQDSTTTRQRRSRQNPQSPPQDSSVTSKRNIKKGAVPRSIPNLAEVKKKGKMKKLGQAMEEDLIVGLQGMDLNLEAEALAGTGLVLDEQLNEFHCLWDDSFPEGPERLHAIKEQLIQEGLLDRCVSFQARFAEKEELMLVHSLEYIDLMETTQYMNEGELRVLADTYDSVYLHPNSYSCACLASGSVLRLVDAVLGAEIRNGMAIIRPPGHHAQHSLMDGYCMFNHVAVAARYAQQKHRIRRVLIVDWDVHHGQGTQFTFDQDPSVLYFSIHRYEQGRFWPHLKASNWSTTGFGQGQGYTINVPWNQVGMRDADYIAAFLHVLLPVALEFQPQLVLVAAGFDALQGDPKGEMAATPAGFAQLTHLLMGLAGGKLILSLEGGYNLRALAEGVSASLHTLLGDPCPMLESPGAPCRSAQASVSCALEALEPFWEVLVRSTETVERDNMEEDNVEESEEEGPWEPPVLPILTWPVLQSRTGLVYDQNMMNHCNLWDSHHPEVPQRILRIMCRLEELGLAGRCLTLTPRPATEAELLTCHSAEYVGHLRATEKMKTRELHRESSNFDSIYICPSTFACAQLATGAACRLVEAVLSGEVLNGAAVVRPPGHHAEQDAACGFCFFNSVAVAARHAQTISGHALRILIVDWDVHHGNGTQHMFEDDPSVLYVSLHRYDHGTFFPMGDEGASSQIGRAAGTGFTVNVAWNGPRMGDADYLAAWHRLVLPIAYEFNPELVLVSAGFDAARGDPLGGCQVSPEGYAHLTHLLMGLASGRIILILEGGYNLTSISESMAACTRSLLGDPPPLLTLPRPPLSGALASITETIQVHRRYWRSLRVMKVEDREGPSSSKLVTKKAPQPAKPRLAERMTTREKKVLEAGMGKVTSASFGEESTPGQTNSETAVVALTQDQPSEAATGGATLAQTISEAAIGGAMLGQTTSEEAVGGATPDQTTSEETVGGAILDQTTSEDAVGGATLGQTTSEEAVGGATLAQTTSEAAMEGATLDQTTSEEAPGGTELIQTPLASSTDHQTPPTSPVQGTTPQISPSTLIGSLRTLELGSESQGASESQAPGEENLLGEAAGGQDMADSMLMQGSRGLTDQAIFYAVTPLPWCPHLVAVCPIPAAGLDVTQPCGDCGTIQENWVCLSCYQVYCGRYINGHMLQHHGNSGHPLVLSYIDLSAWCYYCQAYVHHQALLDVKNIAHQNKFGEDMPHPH
Assay: HDAC6 Enzyme Assay
Type: biochemical
Conditions: compound concentration 0.37 μM, read-out: Percent Inhibition
Threshold rule: inhibition at 0.37 µM greater than or equal to 90% is yes (1); below that, no (0).

INSERT INTO assay_data (molecule, qualitative_label) VALUES
  ('COc1ccc(-c2cccc(CCn3cnc4ccc(C(=O)NO)cc4c3=O)c2)cc1 [Compound I-303]', 'yes (1)'),
  ('O=C(NO)c1ccc2c(=O)[nH]c(-c3ccccc3Cl)nc2c1 [Compound I-414]', 'yes (1)'),
  ('O=C(NO)c1ccc2ncn(Cc3cccc(N4CCOCC4)c3)c(=O)c2c1 [Compound I-114]', 'yes (1)'),
  ('COCc1cn(Cc2ccccc2)c(=O)c2cc(C(=O)NO)ccc12 [Compound I-394]', 'no (0)');

## Task Reported inhibition at 0.37 µM reaches at least 90% for O=C(NO)c1ccc2ncn(Cc3cccc(-c4ccc(C(F)(F)F)cc4)c3)c(=O)c2c1 [Compound I-69] ?
## Result no (0)

## Task # bool: inhibition at 0.37 µM of O=C(NO)c1ccc2c(=O)[nH]c(-c3cccnc3)nc2c1 [Compound I-398] >= 90%
## Result no (0)

## Task Would you say O=C(NO)c1ccc2ncn(Cc3cccc(-c4ccc(S(=O)(=O)N5CCCCC5)cc4)c3)c(=O)c2c1 [Compound I-254] shows inhibition at 0.37 µM at minimum 90%?
## Result yes (1)

## Task Form field: inhibition at 0.37 µM at least 90%? Entry: O=C(NO)c1ccc2c(CO)cn(Cc3ccccc3)c(=O)c2c1 [Compound I-337]
## Result no (0)

## Task Kindly determine if inhibition at 0.37 µM recorded for O=C(NO)c1ccc2ccn(Cc3cccc(-n4cc5ccccc5n4)c3)c(=O)c2c1 [Compound I-308] is above or exactly 90%.
## Result yes (1)

## Task Quick check, inhibition at 0.37 µM >= 90%? CS(=O)(=O)c1cccc(CCn2cnc3ccc(C(=O)NO)cc3c2=O)c1 [Compound I-216]
## Result no (0)

## Task Threshold query (inhibition at 0.37 µM >= 90%) on O=C(NO)c1ccc2ncn(Cc3cccc(S(=O)(=O)c4ccccc4)c3)c(=O)c2c1 [Compound I-142]
## Result yes (1)

## Task Item O=C(NO)c1ccc2c(=O)[nH]c(-c3cccc(-c4ccncc4)c3)nc2c1 [Compound I-396] with inhibition at 0.37 µM of 90% or above?
## Result no (0)

## Task Check the entry O=C(NO)c1ccc2ncn(CCc3cccc(-c4ccncc4)c3)c(=O)c2c1 [Compound I-220] : does inhibition at 0.37 µM equal or exceed 90%?
## Result yes (1)

## Task // inclusive: inhibition at 0.37 µM at least 90%? input: O=C(NO)c1ccc2ncn(CCc3cccc(-c4c(Cl)cccc4Cl)c3)c(=O)c2c1 [Compound I-313]
## Result no (0)

## Task Reported inhibition at 0.37 µM reaches at least 90% for O=C(NO)c1ccc2ncn(CCc3cccc(-c4csc5ccccc45)c3)c(=O)c2c1 [Compound I-318] ?
## Result no (0)

## Task Has O=C(NO)c1ccc2ccn(-c3ccccc3Cl)c(=O)c2c1 [Compound I-298] a recorded inhibition at 0.37 µM greater than or equal to 90%?
## Result yes (1)

## Task Please check the record CC(c1ccccc1C(F)(F)F)n1ccc2ccc(C(=O)NO)cc2c1=O (stereo not drawn) [Compound I-224] and state if its inhibition at 0.37 µM is at or above 90%.
## Result yes (1)

## Task // inclusive: inhibition at 0.37 µM at least 90%? input: CC(C)(C)OC(=O)N1CCC(c2cccc(CCn3ccc4ccc(C(=O)NO)cc4c3=O)c2)CC1 [Compound I-317]
## Result yes (1)

## Task # check: inhibition at 0.37 µM of CC(c1ccccc1)n1cnc2ccc(C(=O)NO)cc2c1=O (stereo not drawn) [Compound I-12] is greater than or equal to 90%
## Result yes (1)

## Task Decide: is the reported value of inhibition at 0.37 µM for Cc1ncc(-c2nc3cc(C(=O)NO)ccc3c(=O)n2Cc2ccc(C(F)(F)F)cc2)n1C [Compound I-138] equal to or greater than 90%?
## Result no (0)

## Task I'd appreciate it if you could say whether CCn1nccc1-c1nc2cc(C(=O)NO)ccc2c(=O)[nH]1 [Compound I-399] has inhibition at 0.37 µM at least equal to 90%.
## Result no (0)

## Task Check if inhibition at 0.37 µM >= 90% (inclusive). Item: CC1(C(=O)Nc2cccc(Cn3ccc4ccc(C(=O)NO)cc4c3=O)c2)CCNCC1 [Compound I-215]
## Result yes (1)
